Sourced from PubChem BioAssay (NCI)

tested on: MALME-3M melanoma; assay: NCI tumour cell line growth inhibition, 48 h
Documented TGI across a set of compounds

{"compound": "COC(=O)Cc1c2n(c3ccccc13)C(=O)N1c3ccccc3C(CC(=O)OC)C21 (centres undefined)", "TGI": "> 100 µM"}

TGI lookup needed for COC(=O)[C@@H]1[C@H]2CC[C@]3(C)[C@@H](OC(C)=O)CC[C@H]3[C@@H]2CC[C@H]1C1(C)SCCS1 , thanks.
38.9 µM

TGI lookup needed for Cc1nn(C(=O)c2ccccc2O)c2c1C(c1ccc([N+](=O)[O-])cc1)SC(N)=N2 (centres undefined) , thanks.
> 10 µM
